Assign Fold IC50 increase relative to wild-type to each entry below.
target: HIV-1 JR-CSF Env T320A (HIV-1 isolate JR-CSF) (UniProt P20871); assay: cell-based or functional assay
Record the value in fold, omitting the unit from your answer.

Quick one: give measured Fold IC50 increase relative to wild-type for PGT-126 (antibody, V domains shown) VH: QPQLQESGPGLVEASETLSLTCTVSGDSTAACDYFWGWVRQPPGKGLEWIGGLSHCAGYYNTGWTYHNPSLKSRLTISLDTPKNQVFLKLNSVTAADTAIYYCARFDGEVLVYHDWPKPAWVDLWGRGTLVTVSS VL: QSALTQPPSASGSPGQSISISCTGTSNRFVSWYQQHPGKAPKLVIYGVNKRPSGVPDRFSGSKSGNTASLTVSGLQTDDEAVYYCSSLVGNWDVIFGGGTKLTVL
0.6

Provide only the value of recorded Fold IC50 increase relative to wild-type for PGT-131 (antibody, V domains shown) VH: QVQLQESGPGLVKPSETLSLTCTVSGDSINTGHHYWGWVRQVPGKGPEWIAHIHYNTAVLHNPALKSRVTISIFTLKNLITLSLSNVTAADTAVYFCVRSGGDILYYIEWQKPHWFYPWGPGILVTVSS VL: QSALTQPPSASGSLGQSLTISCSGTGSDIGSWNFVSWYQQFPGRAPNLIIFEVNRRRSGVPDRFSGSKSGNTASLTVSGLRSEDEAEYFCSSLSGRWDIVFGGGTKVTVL
4.5

State its Fold IC50 increase relative to wild-type for this binder: PGT-128 (antibody, V domains shown) VH: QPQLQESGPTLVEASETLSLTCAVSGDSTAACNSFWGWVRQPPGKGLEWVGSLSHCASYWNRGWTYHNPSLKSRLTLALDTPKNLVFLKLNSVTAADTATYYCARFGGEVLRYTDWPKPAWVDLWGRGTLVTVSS VL: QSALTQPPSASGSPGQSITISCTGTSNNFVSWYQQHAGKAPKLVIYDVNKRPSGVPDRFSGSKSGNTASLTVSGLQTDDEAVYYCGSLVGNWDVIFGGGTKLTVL
1

Entry source: patent US20200024330A1
